Target: human C5 (human)
Experiment: SPR, pH 5.8, 37C
READOUT_TYPE: Kd (nM)
The response must be a number in nM with no trailing unit.

- 305LO5 (antibody, V domains shown) VH: QVQLVESGGGLVQPGGSLRLSCAASGFTSHSSYYVAWVRQAPGKGLEWVGAIYTGSGATYKASWAKGRFTISKDTSKNQVVLTMTNMDPVDTATYYCASDGGYDYPTHAMHYWGQGTLVTVSS VL: DVVMTQSPSSLSASVGDRVTITCQASQNIGSSLAWYQQKPGQAPRLLIYGASKTHSGVPSRFSGSGSGTDFTLTISSLQPEDVATYYCQSTKVGSSYGNHFGGGTKVEIK: 14
- CFA0599 (antibody, V domains shown) VH: QSVEESGGRLVTPGTPLTLTCTVSGLSLSDNTMTWVRQAPGKGLEWIGIISFGGDAYYASWAKGRFPISKTSTTVDLRITSPTTEDTATYFCARVGAGNIFWYFDLWGPGTLVTVSS VL: AYDMTQTPASVEVSVGGTVTIKCQASESIYSALAWYQQKPGQPPKLLIYSASTLASGVPSRFKGSGSGTEYTLTISDLECADAATYYCQQYYSSTNVHNSFGGGTTVVVE: 82.1

**Query** Which Kd value belongs to CFA0341 (antibody, V domains shown) VH: QSVEESGGRLVTPGTPLTLTCTVSGIDLSSYTMGWVRQAPGKGLECIGYIHSFGSTYYASWAKGRFTISKTSTTVDLEITSPTTEDTATYFCARDVGGSSGWDLWGQGTLVTVSS VL: DVVMTQTPSSVSAAVGGTVTIKCQASENIYSNLAWYQQKPGQPPKRLIYDASDLASGVPSRFSGSGYGTQFTLTISGVQCEDAATYYCQANYDSTSSSFGNVFGGGTEVVVK ?
**Result** 0.0595
